The origin of these recorded values is ChEMBL document CHEMBL6153141.

Biological target: Cytochrome P450 2D6 (Homo sapiens)
Sequence (P10635 whole entry): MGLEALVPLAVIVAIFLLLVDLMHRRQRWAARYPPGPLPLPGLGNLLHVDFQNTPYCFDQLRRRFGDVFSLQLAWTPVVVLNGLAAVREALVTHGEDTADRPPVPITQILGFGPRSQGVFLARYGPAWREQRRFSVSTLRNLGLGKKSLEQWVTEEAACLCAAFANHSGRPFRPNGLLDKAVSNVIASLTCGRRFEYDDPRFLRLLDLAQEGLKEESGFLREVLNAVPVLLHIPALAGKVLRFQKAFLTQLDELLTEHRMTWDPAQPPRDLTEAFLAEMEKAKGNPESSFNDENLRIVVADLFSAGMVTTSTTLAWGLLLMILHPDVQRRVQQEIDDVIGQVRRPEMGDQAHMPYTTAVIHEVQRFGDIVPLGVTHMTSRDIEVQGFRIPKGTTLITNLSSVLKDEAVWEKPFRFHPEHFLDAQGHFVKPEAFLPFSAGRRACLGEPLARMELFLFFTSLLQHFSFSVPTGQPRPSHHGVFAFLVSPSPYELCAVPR
pIC50: −log10 of the molar value.

smiles | pIC50
C=CS(=O)(=O)N1CCC[C@@H](Nc2nc(N)nc(Nc3cccc(Oc4ccccc4)c3)n2)C1 | 4.09

###

Biological target: Tyrosine-protein kinase BTK (Homo sapiens)
Sequence (Q06187 whole entry): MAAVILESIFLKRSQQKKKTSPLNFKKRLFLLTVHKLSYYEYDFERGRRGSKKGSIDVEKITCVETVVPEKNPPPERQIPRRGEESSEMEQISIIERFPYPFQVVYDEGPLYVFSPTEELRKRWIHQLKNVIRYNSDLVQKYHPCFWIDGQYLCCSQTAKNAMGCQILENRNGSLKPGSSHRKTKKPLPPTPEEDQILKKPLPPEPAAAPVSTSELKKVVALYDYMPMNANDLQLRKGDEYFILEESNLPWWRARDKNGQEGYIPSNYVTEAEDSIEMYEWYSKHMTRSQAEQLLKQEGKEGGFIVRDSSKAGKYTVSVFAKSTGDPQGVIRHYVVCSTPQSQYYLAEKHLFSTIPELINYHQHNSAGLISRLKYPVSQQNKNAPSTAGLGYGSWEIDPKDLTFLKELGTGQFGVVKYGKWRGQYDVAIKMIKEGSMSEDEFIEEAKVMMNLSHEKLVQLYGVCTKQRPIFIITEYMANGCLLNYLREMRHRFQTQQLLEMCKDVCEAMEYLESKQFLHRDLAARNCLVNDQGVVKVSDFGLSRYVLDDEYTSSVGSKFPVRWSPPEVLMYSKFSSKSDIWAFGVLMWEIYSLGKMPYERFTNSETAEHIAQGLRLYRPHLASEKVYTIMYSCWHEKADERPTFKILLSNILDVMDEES
Assay: Inhibition of BTK (unknown origin) in presence of ATP at Km concentration

smiles | target or system | IC50
C=CS(=O)(=O)N1CCC[C@@H](Nc2nc(N)nc(Nc3cccc(Oc4ccccc4)c3)n2)C1 | Tyrosine-protein kinase BTK (Homo sapiens) | 0.187 µM

###

Target: Tyrosine-protein kinase BTK (Homo sapiens)
Test: Inhibition of BTK (unknown origin)

smiles | target or system | IC50, nM
Cn1cc(Nc2nc(N)nc(-c3cccc(-n4ccc5cc(C6CC6)ccc5c4=O)c3CO)n2)cn1 | Tyrosine-protein kinase BTK (Homo sapiens) | 4.2

###

Test system: MDA-MB-231
Experiment: Anticancer activity against human MDA-MB-231 cells assessed as inhibition of cell proliferation incubated for 72 hrs by MTT assay
Assay type: functional, cell-based
Conditions: MDA-MB-231, 72 h
pIC50: −log10 of the molar value.

smiles | pIC50
C=CS(=O)(=O)N1CCC[C@@H](Nc2nc(N)nc(Nc3cccc(OCc4ccccc4)c3)n2)C1 | 4.92
C=CS(=O)(=O)N1CCC[C@@H](Nc2nc(N)nc(Nc3cccc(Oc4ccccc4)c3)n2)C1 | 4.71
C=CC(=O)N1CCC[C@@H](n2nc(-c3ccc(Oc4ccccc4)cc3)c3c(N)ncnc32)C1 | 4.54

###

Tested on: PC-3
Test: cells
Conditions: Homo sapiens, PC-3, 72 h
Description: Anticancer activity against human PC-3 cells assessed as inhibition of cell proliferation incubated for 72 hrs by MTT assay
pIC50: −log10 of the molar value.

smiles | sign | pIC50
C=CS(=O)(=O)N1CCC[C@@H](Nc2nc(N)nc(Nc3ccc(Oc4ccccc4)cc3)n2)C1 | < | 4.49
C=CS(=O)(=O)N1CCC[C@@H](Nc2nc(N)nc(Nc3cccc(Oc4ccccc4)c3)n2)C1 | = | 4.76
C=CC(=O)N1CCC[C@@H](n2nc(-c3ccc(Oc4ccccc4)cc3)c3c(N)ncnc32)C1 | = | 4.68
C=CS(=O)(=O)N1CC[C@@H](Nc2nc(N)nc(Nc3ccc(Oc4ccccc4)cc3)n2)C1 | < | 4.49
C=CS(=O)(=O)N1CCC(CNc2nc(N)nc(Nc3ccc(Oc4ccccc4)cc3)n2)CC1 | < | 4.49
C=CS(=O)(=O)N1CCC[C@@H](Nc2nc(N)nc(Nc3ccc(OCc4ccccc4)cc3)n2)C1 | < | 4.49
C=CS(=O)(=O)N1CCC[C@@H](Nc2nc(N)nc(Nc3cccc(OCc4ccccc4)c3)n2)C1 | = | 4.73

###

Recorded measurements of IC50 at 72 h, one per entry
Test: Cytotoxicity against human GES1 cells assessed as inhibition of cell proliferation incubated for 72 hrs by MTT assay
Assay type: toxicity, cell-based
attribute measured: IC50 at 72 h (µM)

molecule | attribute measured | assay result
C=CC(=O)N1CCC[C@@H](n2nc(-c3ccc(Oc4ccccc4)cc3)c3c(N)ncnc32)C1 [IBRUTINIB] | IC50 at 72 h | 28.6
C=CS(=O)(=O)N1CCC[C@@H](Nc2nc(N)nc(Nc3cccc(Oc4ccccc4)c3)n2)C1 | IC50 at 72 h | 21.2
C=CS(=O)(=O)N1CCC[C@@H](Nc2nc(N)nc(Nc3cccc(OCc4ccccc4)c3)n2)C1 | IC50 at 72 h | 13.9

###

Test: Metabolic stability in rat liver microsomes assessed as intrinsic clearance at 100 uM measured upto 60 mins in presence of NADPH by LC-MS/MS analysis
Format: ADME, Microsome
Conditions: read-out: CLH

smiles | microsomal CLint at 100 µM
C=CS(=O)(=O)N1CCC[C@@H](Nc2nc(N)nc(Nc3cccc(Oc4ccccc4)c3)n2)C1 | 304 µL/min/mg

###

Biological target: Epidermal growth factor receptor (Homo sapiens)
Sequence (P00533 whole entry): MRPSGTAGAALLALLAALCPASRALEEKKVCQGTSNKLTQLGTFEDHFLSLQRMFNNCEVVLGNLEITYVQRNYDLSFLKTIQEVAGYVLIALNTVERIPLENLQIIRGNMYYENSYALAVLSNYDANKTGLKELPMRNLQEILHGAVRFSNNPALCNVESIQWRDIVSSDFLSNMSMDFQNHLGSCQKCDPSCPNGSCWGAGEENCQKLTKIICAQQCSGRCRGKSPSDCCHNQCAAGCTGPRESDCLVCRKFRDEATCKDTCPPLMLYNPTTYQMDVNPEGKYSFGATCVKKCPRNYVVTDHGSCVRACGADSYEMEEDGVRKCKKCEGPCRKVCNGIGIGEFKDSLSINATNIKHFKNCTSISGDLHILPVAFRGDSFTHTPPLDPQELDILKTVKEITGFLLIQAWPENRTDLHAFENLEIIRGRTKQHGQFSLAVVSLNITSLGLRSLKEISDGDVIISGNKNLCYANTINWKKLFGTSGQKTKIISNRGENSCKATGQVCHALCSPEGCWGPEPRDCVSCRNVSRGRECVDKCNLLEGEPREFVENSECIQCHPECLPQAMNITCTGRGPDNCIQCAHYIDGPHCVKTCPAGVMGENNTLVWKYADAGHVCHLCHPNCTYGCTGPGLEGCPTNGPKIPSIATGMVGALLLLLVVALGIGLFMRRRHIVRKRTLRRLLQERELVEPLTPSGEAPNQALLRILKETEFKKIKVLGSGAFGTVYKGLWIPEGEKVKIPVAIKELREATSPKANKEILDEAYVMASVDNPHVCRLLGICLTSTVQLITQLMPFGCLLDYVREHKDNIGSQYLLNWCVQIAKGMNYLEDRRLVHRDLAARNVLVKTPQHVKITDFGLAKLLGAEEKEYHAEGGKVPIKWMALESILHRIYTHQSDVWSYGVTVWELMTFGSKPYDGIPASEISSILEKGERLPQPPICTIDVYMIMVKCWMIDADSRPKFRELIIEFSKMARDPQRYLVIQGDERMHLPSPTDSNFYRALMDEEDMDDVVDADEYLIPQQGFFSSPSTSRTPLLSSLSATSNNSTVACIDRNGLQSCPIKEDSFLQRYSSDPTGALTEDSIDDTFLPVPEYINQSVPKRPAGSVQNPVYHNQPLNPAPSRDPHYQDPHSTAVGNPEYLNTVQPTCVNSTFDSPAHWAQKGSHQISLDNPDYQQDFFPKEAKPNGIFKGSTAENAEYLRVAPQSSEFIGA
pIC50: −log10 of the molar value.
attribute measured: pIC50

smiles | assay result
C=CS(=O)(=O)N1CCC[C@@H](Nc2nc(N)nc(Nc3cccc(Oc4ccccc4)c3)n2)C1 | 6.33

###

Molecular target: Cytochrome P450 2C9 (Homo sapiens, UniProt P11712)
Sequence (P11712 whole entry): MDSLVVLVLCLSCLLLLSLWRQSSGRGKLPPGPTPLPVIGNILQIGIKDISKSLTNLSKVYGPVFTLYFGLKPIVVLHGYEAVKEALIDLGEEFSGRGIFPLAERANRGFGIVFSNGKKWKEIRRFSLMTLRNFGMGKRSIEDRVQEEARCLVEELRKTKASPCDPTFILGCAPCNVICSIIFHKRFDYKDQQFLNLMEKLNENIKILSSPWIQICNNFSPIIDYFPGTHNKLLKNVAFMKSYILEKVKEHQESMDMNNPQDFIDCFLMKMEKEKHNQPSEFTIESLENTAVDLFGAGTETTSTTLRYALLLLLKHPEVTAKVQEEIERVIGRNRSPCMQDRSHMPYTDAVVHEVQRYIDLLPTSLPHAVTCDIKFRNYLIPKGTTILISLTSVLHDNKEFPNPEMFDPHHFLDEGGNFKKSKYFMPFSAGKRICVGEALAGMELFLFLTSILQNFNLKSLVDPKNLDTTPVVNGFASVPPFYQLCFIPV

smiles | target or system | IC50 [µM]
C=CS(=O)(=O)N1CCC[C@@H](Nc2nc(N)nc(Nc3cccc(Oc4ccccc4)c3)n2)C1 | Cytochrome P450 2C9 (Homo sapiens, UniProt P11712) | 16.8

###

Assay: Half-life in Sprague-Dawley rat at 5 mg/kg, po or 5 mg/kg, iv measured after 24 hrs by LC-MS/MS analysis
Type: ADME, organism-based
Conditions: in vivo

smiles | half-life (h)
C=CS(=O)(=O)N1CCC[C@@H](Nc2nc(N)nc(Nc3cccc(Oc4ccccc4)c3)n2)C1 | 18.3

###

Molecular target: Cytochrome P450 1A2 (Homo sapiens, UniProt P05177)
Sequence (P05177 whole entry): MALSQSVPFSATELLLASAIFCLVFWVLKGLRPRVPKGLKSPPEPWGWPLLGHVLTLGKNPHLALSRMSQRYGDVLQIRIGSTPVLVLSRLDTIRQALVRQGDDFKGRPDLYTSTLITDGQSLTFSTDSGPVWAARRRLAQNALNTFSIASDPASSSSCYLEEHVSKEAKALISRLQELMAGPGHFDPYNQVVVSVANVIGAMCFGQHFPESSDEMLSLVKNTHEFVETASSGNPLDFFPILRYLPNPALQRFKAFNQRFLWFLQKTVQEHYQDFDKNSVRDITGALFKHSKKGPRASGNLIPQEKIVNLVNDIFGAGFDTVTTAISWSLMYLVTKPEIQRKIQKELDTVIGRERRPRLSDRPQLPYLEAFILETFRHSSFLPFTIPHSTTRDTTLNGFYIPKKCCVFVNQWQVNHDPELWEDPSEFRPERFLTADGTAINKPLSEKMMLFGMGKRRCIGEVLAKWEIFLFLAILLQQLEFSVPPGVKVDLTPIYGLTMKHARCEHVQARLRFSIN

smiles | IC50
C=CS(=O)(=O)N1CCC[C@@H](Nc2nc(N)nc(Nc3cccc(Oc4ccccc4)c3)n2)C1 | > 100 µM

###

Target: Tyrosine-protein kinase ITK/TSK (Homo sapiens)
Sequence (Q08881 whole entry): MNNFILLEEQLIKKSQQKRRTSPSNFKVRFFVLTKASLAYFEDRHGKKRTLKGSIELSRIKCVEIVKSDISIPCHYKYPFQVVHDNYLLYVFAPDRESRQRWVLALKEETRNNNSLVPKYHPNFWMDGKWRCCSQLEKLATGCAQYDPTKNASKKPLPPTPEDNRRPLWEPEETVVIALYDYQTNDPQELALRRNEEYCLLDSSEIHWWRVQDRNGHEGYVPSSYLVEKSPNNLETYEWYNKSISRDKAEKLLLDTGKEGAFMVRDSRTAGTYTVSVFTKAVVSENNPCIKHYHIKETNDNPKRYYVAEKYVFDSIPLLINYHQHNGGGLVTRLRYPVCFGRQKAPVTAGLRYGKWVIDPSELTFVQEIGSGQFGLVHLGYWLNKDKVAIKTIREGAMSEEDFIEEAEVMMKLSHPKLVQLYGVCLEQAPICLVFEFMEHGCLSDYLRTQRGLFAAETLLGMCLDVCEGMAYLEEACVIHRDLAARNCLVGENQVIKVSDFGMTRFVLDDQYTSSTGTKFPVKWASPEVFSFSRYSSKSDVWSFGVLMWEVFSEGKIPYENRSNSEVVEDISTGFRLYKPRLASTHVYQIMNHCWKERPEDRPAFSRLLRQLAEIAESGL
pIC50: −log10 of the molar value.

smiles | target or system | pIC50
C=CS(=O)(=O)N1CCC[C@@H](Nc2nc(N)nc(Nc3cccc(Oc4ccccc4)c3)n2)C1 | Tyrosine-protein kinase ITK/TSK (Homo sapiens) | < 6.00

###

Molecular target: UniProt:Q15303

smiles | target or system | IC50
C=CS(=O)(=O)N1CCC[C@@H](Nc2nc(N)nc(Nc3cccc(Oc4ccccc4)c3)n2)C1 | UniProt:Q15303 | > 1000 nM

###

IC50 values, listed per item
System: HCC827
Assay: cells
Conditions: Homo sapiens, HCC827, 72 h
Description: Anticancer activity against human HCC827 cells assessed as inhibition of cell proliferation incubated for 72 hrs by MTT assay

molecule | sign | IC50 / µM
C=CS(=O)(=O)N1CC[C@@H](Nc2nc(N)nc(Nc3ccc(Oc4ccccc4)cc3)n2)C1 | = | 12.6
C=CS(=O)(=O)N1CCC[C@@H](Nc2nc(N)nc(Nc3cccc(OCc4ccccc4)c3)n2)C1 | = | 3
C=CS(=O)(=O)N1CCC[C@@H](Nc2nc(N)nc(Nc3cccc(Oc4ccccc4)c3)n2)C1 | = | 5.7
C=CC(=O)N1CCC[C@@H](n2nc(-c3ccc(Oc4ccccc4)cc3)c3c(N)ncnc32)C1 [IBRUTINIB] | = | 0.1
C=CS(=O)(=O)N1CCC(CNc2nc(N)nc(Nc3ccc(Oc4ccccc4)cc3)n2)CC1 | = | 29.3
C=CS(=O)(=O)N1CCC[C@@H](Nc2nc(N)nc(Nc3ccc(OCc4ccccc4)cc3)n2)C1 | > | 32
C=CS(=O)(=O)N1CCC[C@@H](Nc2nc(N)nc(Nc3ccc(Oc4ccccc4)cc3)n2)C1 | = | 5.2

###

Assay: Cmax in Sprague-Dawley rat at 5 mg/kg, po or 5 mg/kg, iv measured after 24 hrs by LC-MS/MS analysis
Type: ADME, organism-based
Conditions: in vivo

smiles | Cmax, ng/mL
C=CS(=O)(=O)N1CCC[C@@H](Nc2nc(N)nc(Nc3cccc(Oc4ccccc4)c3)n2)C1 | 73.5

###

Reported IC50 at 72 h values for a set of compounds
Experiment: Cytotoxicity against HEK293 cells assessed as inhibition of cell proliferation incubated for 72 hrs by MTT assay
Assay type: toxicity, cell-based
Settings: human
attribute measured: IC50 at 72 h

smiles | attribute measured | assay result
C=CC(=O)N1CCC[C@@H](n2nc(-c3ccc(Oc4ccccc4)cc3)c3c(N)ncnc32)C1 | IC50 at 72 h | > 32 µM
C=CS(=O)(=O)N1CCC[C@@H](Nc2nc(N)nc(Nc3cccc(Oc4ccccc4)c3)n2)C1 | IC50 at 72 h | > 32 µM
C=CS(=O)(=O)N1CCC[C@@H](Nc2nc(N)nc(Nc3cccc(OCc4ccccc4)c3)n2)C1 | IC50 at 72 h | > 32 µM

###

Target: Cytochrome P450 3A4 (Homo sapiens)
Sequence (P08684 whole entry): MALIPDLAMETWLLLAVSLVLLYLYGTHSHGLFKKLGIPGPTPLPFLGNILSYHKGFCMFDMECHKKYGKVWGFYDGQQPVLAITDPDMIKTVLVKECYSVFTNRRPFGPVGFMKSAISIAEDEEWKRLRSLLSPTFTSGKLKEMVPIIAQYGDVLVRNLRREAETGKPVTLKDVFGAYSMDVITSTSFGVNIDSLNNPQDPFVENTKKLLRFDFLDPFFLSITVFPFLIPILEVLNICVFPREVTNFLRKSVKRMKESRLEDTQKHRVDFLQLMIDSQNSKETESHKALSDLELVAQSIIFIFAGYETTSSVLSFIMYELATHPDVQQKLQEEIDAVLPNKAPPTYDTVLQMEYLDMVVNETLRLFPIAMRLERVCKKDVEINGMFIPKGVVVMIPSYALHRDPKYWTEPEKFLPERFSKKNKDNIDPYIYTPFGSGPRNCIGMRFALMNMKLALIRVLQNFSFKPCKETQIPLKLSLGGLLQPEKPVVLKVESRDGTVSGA
Assay: Inhibition of CYP3A4 in human liver microsomes using testosterone as substrate preincubated for 5 mins followed by NADPH addition and measured after 10 mins by LC-MS/MS analysis
Assay type: ADME, Microsome
pIC50: −log10 of the molar value.
attribute measured: pIC50

smiles | target or system | assay result
C=CS(=O)(=O)N1CCC[C@@H](Nc2nc(N)nc(Nc3cccc(Oc4ccccc4)c3)n2)C1 | Cytochrome P450 3A4 (Homo sapiens) | < 4.00

###

Assay: Oral bioavailability in Sprague-Dawley rat at 5 mg/kg measured after 24 hrs by LC-MS/MS analysis
Format: ADME, organism-based
Details: in vivo

smiles | bioavailability [%]
C=CS(=O)(=O)N1CCC[C@@H](Nc2nc(N)nc(Nc3cccc(Oc4ccccc4)c3)n2)C1 | 6.6

###

Experiment: Cytotoxicity against human L02 cells assessed as inhibition of cell proliferation incubated for 72 hrs by MTT assay
Assay type: toxicity, cell-based
Entries and their measured IC50 at 72 h follow.

compound | IC50 at 72 h
C=CS(=O)(=O)N1CCC[C@@H](Nc2nc(N)nc(Nc3cccc(Oc4ccccc4)c3)n2)C1 | > 32 µM
C=CS(=O)(=O)N1CCC[C@@H](Nc2nc(N)nc(Nc3cccc(OCc4ccccc4)c3)n2)C1 | > 32 µM
C=CC(=O)N1CCC[C@@H](n2nc(-c3ccc(Oc4ccccc4)cc3)c3c(N)ncnc32)C1 [IBRUTINIB] | > 32 µM
